B1: PDS5B (parent)
chain: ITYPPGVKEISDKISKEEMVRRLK

- Variants of: B1
- PROCEDURE SUMMARY: protein stability index of a GFP-peptide fusion (GPS, HEK-293T) (PSI 1-6); higher = more stable;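 note: lentivirally expressed fusions sorted by FACS into six bins by GFP to DsRed ratio, PSI derived from sequencing read proportions per bin multiplied by bin number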
- CONDITION PARAMETERS: c terminus: a fixed tail appended
Class Criterion met: protein stability index at least 4. Class Criterion not met: protein stability index below 4.

In [3]: df
Out[3]:
    mutation_name       answer_label
 0            I1C      Criterion met
 1            V7Q      Criterion met
 2           R22W  Criterion not met
 3            E9C  Criterion not met
 4           L23M  Criterion not met
 5            T2H  Criterion not met
 6            I1A      Criterion met
 7           K24H  Criterion not met
 8           L23Q      Criterion met
 9           I10N      Criterion met
10           D12Y  Criterion not met
11           E17S  Criterion not met
12           V20Y      Criterion met
13           D12V  Criterion not met
14            K8L  Criterion not met
